All values here come from ChEMBL document CHEMBL1124676.

Tested on: CHO-AA8
Test: Inhibitory activity to reduce cell density by 50% of AA8 cells under aerobic conditions
Assay type: functional, cell-based
Conditions: Cricetulus griseus
pIC50: −log10 of the molar value.

- SMILES CODE: "CN(C)CCCNc1c2ccccc2nc2c(F)ccc([N+](=O)[O-])c12"
  pIC50: 6.60
- SMILES CODE: "CC(=O)OCCN(CCOC(C)=O)c1ccc([N+](=O)[O-])c2c(NCCCN(C)C)c3ccccc3nc12"
  pIC50: 4.37
- SMILES CODE: "COC(=O)c1ccc([N+](=O)[O-])c2c(NCCCN(C)C)c3ccccc3nc12"
  pIC50: 5.54
- SMILES CODE: "CN(C)CCCNc1c2ccccc2nc2cccc([N+](=O)[O-])c12"
  pIC50: 7.58
- SMILES CODE: "Cc1ccc([N+](=O)[O-])c2c(NCCCN(C)C)c3ccccc3nc12"
  pIC50: 7.12
- SMILES CODE: "CN(C)CCCNc1c2ccccc2nc2c(N(C)C)ccc([N+](=O)[O-])c12"
  pIC50: 4.72
- SMILES CODE: "CN(C)CCCNc1c2ccccc2nc2c(Cl)ccc([N+](=O)[O-])c12"
  pIC50: 7.48
- SMILES CODE: "CN(C)CCCNc1c2ccccc2nc2c(N(CCO)CCO)ccc([N+](=O)[O-])c12"
  pIC50: 4.21
- SMILES CODE: "COc1ccc([N+](=O)[O-])c2c(NCCCN(C)C)c3ccccc3nc12"
  pIC50: 6.21
